- TARGET: T1, mucin domain-deleted Sudan GP (GPdMuc) (Sudan virus (SUDV), UniProt Q7T9D9 33-632)
- T1 construct: also called Sudan GPdMuc; GP(S)dMuc
- MEASUREMENT DESCRIPTION: BLI competition on Sudan GPdMuc (lower table); competitor mAb166
QUANTITY KIND: % inhibition of binding (%)
Report the figure in % without appending any unit label.

These solved cases illustrate the format of a correct answer.
| BINDER | RESULT UNIT | % inhibition of binding |
| --- | --- | --- |
| antibody 294S (antibody, V domains shown) VH: QVQLQESGPGLVKPSQTLSLTCTVSGGSISSGGYHWSWIRQHPGKGLEWIGNIYYNGRTYYNPSLKSRVTISVDTSENEFSLKLSSVTAADTAVYYCARDRRRPRIGHDYGMDVWGQGTKVIVSS VL: DIQMTQSPSSLSASVGDRVTISCRASQSISNFLNWYQQKPGQAPKLLIYTASNLQSGVPSRFSGSGSGTDFTLTISSLQPEDFATYYCQQIYNTGMYSFGQGTKLEIKR | % | 9.71 |
| antibody 354S (antibody, V domains shown) VH: QVQLVQSGAEVKKPGASVKVSCKASGYSFASYYIHWVRQAPGQGLEWMGIINPSGGTTSYAQKFQGRVTMTRDTSTSTVYMELSSLGSEDTAVYYCARIVDRVTIYLNGVDNYWGQGTLVTVSS VL: EIVMTQSPATLSVSPGERVTLSCRASQSVSSNLAWFQQTPGQAPRLLIYGASTRASGVPARFSGSGSGTEFTLTISSLQSEDFAVYYCLQYNNWPPGWKYGFGQGTKLEIK | % | 16.2 |
| antibody 233S (antibody, V domains shown) VH: EVQLVESGGGLGQPGGSLRLSCAASGFKFKIFGMNWVRQAPGKGLEWVSYISSRSSIIYYADSVKGRFTISRDDATNSLFLQMNSLRDEDTAMYYCVRDYNLIDFVWGSLFDYWGQGILVTVSS VL: AIRMTQSPSSLSASTGDSVTITCRASQNIASYLAWYQQIPGKAPKLLIYVASTLQSGVPSRFSGSGSGTDFTLTISSLQSEDFATYYCQQYYRYPPTFGQGTKVEIK | % | 14.4 |

Query string: What does the record list as % inhibition of binding for antibody 241S (antibody, V domains shown) VH: QVQLVQSGSELKKPGASVKVSCKASGYTFTSYTVNWVRQAPGQGLEWMGWINTNTGNPTYAQGFTGRFVFSSDTSVSTAYLQISDLKAEDTAMYYCARHVAYDLWSGHTVTFDHWGQGTLVTVSS VL: QSALTQPPSASGSPGQSVTISCTGTSSDVGAYNYVSWYQQHPGKAPKLIIYEVTKRPSGVPDRFSGSKSGNTASLTVSGLQAEDEADYYCSSKAGGKTYVFGTGTKVTVL ?
Result string: 10.1
